System: HOP-62 multicell spheroids with HUVEC/MSC, viability
Assay: Anticancer human tumor HOP-62 cell line growth inhibition [KRAS2];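 further: viability read after a week of compound exposure; 100% = DMSO vehicle-treated spheroids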
Settings: compound 0.00316 µM; stronger effect = lower value
Excerpt: Multicellular complex tumor spheroid response to RAS pathway inhibitors in combination with a targeted agents in patient-derived cell lines with oncogenic KRAS variants from multiple cancer types A high-throughput screen of multi-cell type tumor spheroids was designed to identify active combinations of targeted small molecules and KRAS pathway inhibitors. […] Compounds. […] If the clinical Cmax for an agent had not been determined, the highest concentration tested was 10 microM. […]
Measured viability, T/C values are reported for all entries that follow.

Example compounds with recorded viability, T/C:
[[record]]
record_smiles = "CCN1CCN(Cc2ccc(Nc3ncc(F)c(-c4cc(F)c5nc(C)n(C(C)C)c5c4)n3)nc2)CC1"
tested_system = "HOP-62 multicell spheroids with HUVEC/MSC, viability"
value_observed = "102% [middle of 5 runs]"

[[record]]
record_smiles = "CC(=O)Nc1cccc(-n2c(=O)n(C3CC3)c(=O)c3c(Nc4ccc(I)cc4F)n(C)c(=O)c(C)c32)c1"
tested_system = "HOP-62 multicell spheroids with HUVEC/MSC, viability"
value_observed = "61.7% [middle of 5 runs]"

[[record]]
record_smiles = "CN(C)C/C=C/C(=O)Nc1cc2c(Nc3ccc(F)c(Cl)c3)ncnc2cc1O[C@H]1CCOC1"
tested_system = "HOP-62 multicell spheroids with HUVEC/MSC, viability"
value_observed = "104% [middle of 5 runs]"


Could you now look at the following compound, please?
Measured viability, T/C, `Cn1ncnc1[C@H]1c2n[nH]c(=O)c3cc(F)cc(c23)N[C@@H]1c1ccc(F)cc1` : 103% [middle of 5 runs]
